Test system: 276233-004-R-J1-PDC complex spheroid viability
Assay: Anticancer human tumor 276233-004-R-J1-PDC patient-derived colon adenocarcinoma cell line growth inhibition [GQUAD]
Conditions: second compound 3.16 µM; first compound 0.316 µM; active compounds read low
Rule: measured viability, T/C below 60% gets Y; anything equal to or greater than 60% gets N.

Does the reported viability, T/C of O=C(NO)c1cnc(N2CCN(S(=O)(=O)c3ccc4ccccc4c3)CC2)nc1 + CN(C)c1ccc(Nc2c3ccc(NC(=O)CCN4CCCC4)cc3nc3cc(NC(=O)CCN4CCCC4)ccc23)cc1 stay below 60%?
Y

Field entry: O=C(c1cc(Cc2n[nH]c(=O)c3ccccc23)ccc1F)N1CCN(C(=O)C2CC2)CC1 + Cc1[nH]c2ccc(F)cc2c1-c1nc2c3cccnc3c3ncccc3c2[nH]1
Y

Field entry: CC(C)n1c(=O)n(C)c2cnc3cc(F)c(-c4ccc(OCCCN5CCCCC5)nc4)cc3c21 + CN(C)c1ccc(Nc2c3ccc(NC(=O)CCN4CCCC4)cc3nc3cc(NC(=O)CCN4CCCC4)ccc23)cc1
N

Field entry: Cc1cccc(N(C)C(=O)C2C(O)CCN2c2nc(C)cc(C(F)(F)F)c2C#N)c1 (stereo not given) + Cc1cnc(CNC(=O)c2c(=O)c3ccc(N4CCCN(C)CC4)nc3n3c2sc2ccccc23)cn1
N

###

System: 276233-004-R-J1-PDC complex spheroid viability
Test: Anticancer human tumor 276233-004-R-J1-PDC cell line growth inhibition [GQUAD];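 note: spheroids exposed to drugs for seven days; 100% = DMSO vehicle control viability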
Details: second compound 3.16 µM; first compound 0.316 µM; active compounds read low
metric name: viability, T/C

Which viability, T/C value belongs to COc1cc(C2c3cc4c(cc3C(OC3OC5COC(C)OC5C(O)C3O)C3COC(=O)C23)OCO4)cc(OC)c1O (stereo not given) + Cc1cnc(CNC(=O)c2c(=O)c3ccc(N4CCCN(C)CC4)nc3n3c2sc2ccccc23)cn1 ?
76.7%

Field entry: CCCS(=O)(=O)Nc1ccc(F)c(C(=O)c2c[nH]c3ncc(-c4ccc(Cl)cc4)cc23)c1F + Cc1cnc(CNC(=O)c2c(=O)c3ccc(N4CCCN(C)CC4)nc3n3c2sc2ccccc23)cn1
81.9%

Field entry: CC[C@@]1(O)C(=O)OCc2c1cc1n(c2=O)Cc2cc3c(CN(C)C)c(O)ccc3nc2-1 + Cc1cnc(CNC(=O)c2c(=O)c3ccc(N4CCCN(C)CC4)nc3n3c2sc2ccccc23)cn1
80.8%

Field entry: CC(=O)O[C@H]1C(=O)[C@@]2(C)[C@H]([C@H](OC(=O)c3ccccc3)[C@]3(O)C[C@H](OC(=O)[C@H](O)[C@@H](NC(=O)c4ccccc4)c4ccccc4)C(C)=C1C3(C)C)[C@]1(OC(C)=O)CO[C@@H]1C[C@@H]2O + CN(C)c1ccc(Nc2c3ccc(NC(=O)CCN4CCCC4)cc3nc3cc(NC(=O)CCN4CCCC4)ccc23)cc1
37.2%

Field entry: COc1ccc([C@@H](O)c2cc(-c3ncnc4cc(N5CCOCC5)ccc34)c(F)cc2Cl)nn1 + Cc1cnc(CNC(=O)c2c(=O)c3ccc(N4CCCN(C)CC4)nc3n3c2sc2ccccc23)cn1
70%

Field entry: Nc1ccn(C2OC(CO)C(O)C2(F)F)c(=O)n1 (stereo not given) + CN(C)c1ccc(Nc2c3ccc(NC(=O)CCN4CCCC4)cc3nc3cc(NC(=O)CCN4CCCC4)ccc23)cc1
56%

Field entry: C=CC(=O)N1CCN(c2nc(=O)n(-c3c(C)ccnc3C(C)C)c3nc(-c4c(O)cccc4F)c(F)cc23)C(C)C1 (stereo not given) + Cc1cnc(CNC(=O)c2c(=O)c3ccc(N4CCCN(C)CC4)nc3n3c2sc2ccccc23)cn1
77.1%

Field entry: C#Cc1c(F)ccc2cc(O)cc(-c3ncc4c(N5CC6CCC(C5)N6)nc(OCC56CCCN5CC(F)C6)nc4c3F)c12 (stereo not given) + Cc1cnc(CNC(=O)c2c(=O)c3ccc(N4CCCN(C)CC4)nc3n3c2sc2ccccc23)cn1
66.9%

Field entry: Cc1[nH]c2ccccc2c1CCNCc1ccc(/C=C/C(=O)NO)cc1 + Cc1[nH]c2ccc(F)cc2c1-c1nc2c3cccnc3c3ncccc3c2[nH]1
6.05%

Field entry: C=CC(=O)N1CCN(c2nc(=O)n(-c3c(C)ccnc3C(C)C)c3nc(-c4c(O)cccc4F)c(F)cc23)C(C)C1 (stereo not given) + CN(C)c1ccc(Nc2c3ccc(NC(=O)CCN4CCCC4)cc3nc3cc(NC(=O)CCN4CCCC4)ccc23)cc1
42.3%
